Measured values drawn from PubChem BioAssay AID624037 for this set.

Reported activation is given for each of the following molecules.
Biological target: Muscarinic acetylcholine receptor M5 (Homo sapiens) (UniProt P08912)
Sequence (P08912 whole entry, looked up): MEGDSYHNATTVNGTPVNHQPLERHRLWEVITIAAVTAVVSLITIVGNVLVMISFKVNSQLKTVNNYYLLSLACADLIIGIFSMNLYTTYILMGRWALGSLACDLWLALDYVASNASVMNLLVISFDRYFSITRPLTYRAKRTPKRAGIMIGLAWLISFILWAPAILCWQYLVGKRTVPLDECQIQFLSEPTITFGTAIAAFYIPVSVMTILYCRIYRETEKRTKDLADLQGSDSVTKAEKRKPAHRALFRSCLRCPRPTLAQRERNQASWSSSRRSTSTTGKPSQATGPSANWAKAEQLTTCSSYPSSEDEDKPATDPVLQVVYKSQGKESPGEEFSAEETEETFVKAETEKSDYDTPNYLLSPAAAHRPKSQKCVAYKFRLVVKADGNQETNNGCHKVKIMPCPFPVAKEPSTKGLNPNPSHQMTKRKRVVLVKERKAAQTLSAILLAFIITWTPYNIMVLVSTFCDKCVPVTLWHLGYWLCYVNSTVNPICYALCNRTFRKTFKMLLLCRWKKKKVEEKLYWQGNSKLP
Assay: CHRM5 activators raising intracellular calcium – CHO-K1 cells, Fluo-8 calcium fluorescence, primary screen (AID 624037);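 further: signal is peak over basal fluorescence ratio across the kinetic read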
Conditions: CHO-K1 hM5 cells, at 3 µM, stronger effect = higher value, 0% DMSO wells, 100% maximal acetylcholine response
About 700 (0.19%) of roughly 360,000 compounds were called active. The list comes from a sample in which actives are over-represented; it also holds close analogues and randomly drawn compounds.
Note: unit % is implicit; provide only the numeric part.

Worked examples, 2 molecules total:
MOLECULE	activation [%]
COc1ccc(OC)c(CN2C(=O)CCC2(C)c2nnnn2Cc2ccccc2)c1 (stereo unspecified)	2.06
COC(=O)c1ccc(OC(=O)c2nn(C)cc2Cl)c(OC)c1	-3.16

Data request: Using the record for `O=C(NC(=S)Nc1ccc(Cl)cc1Cl)C1CC1` , report its activation.
Data returned: -3.08

Data request: // same read-out, input: CN(C)c1ccc(C(CNC(=O)c2ccc(F)cc2)c2c[nH]c3ccccc23)cc1 (stereo unspecified)
Data returned: -4.52

Data request: // same read-out, input: `CCn1c(-c2ccoc2C)n[nH]c1=S`
Data returned: -2.69

Data request: // same read-out, input: CC(C[N+](C)(C)C)OC(N)=O (stereo unspecified)
Data returned: 96.3

Data request: // same read-out, input: `COc1ccc(-c2onc(C)c2-c2ccc3c(c2)OCCO3)c(O)c1`
Data returned: 12.5

Data request: // same read-out, input: `O=C(O)c1ccc2c(=O)n3c(nc2c1)/C(=C/c1ccc(OC(F)F)cc1OC(F)F)CC3`
Data returned: -3.87

Data request: // same read-out, input: `COc1ccc(-c2n[nH]c(C)c2-c2ccc(OC)c(OC)c2)c(O)c1`
Data returned: 29.1

###

Biological target: Muscarinic acetylcholine receptor M5 (Homo sapiens) (UniProt P08912)
Experiment: CHRM5 activators raising intracellular calcium – CHO-K1 cells, Fluo-8 calcium fluorescence, primary screen (AID 624037);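 further: signal is peak over basal fluorescence ratio across the kinetic read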
Details: CHO-K1 hM5 cells, at 3 µM, stronger effect = higher value, 0% DMSO wells, 100% maximal acetylcholine response
Out of some 360,000 compounds screened, about 700 (0.19%) were called active. The full list was thinned out, with actives kept by preference.
MEASURE: activation (%)
Note: unit % is implicit; provide only the numeric part.

Worked examples, 2 compounds total:
COMPOUND	activation (%)
COC(=O)c1sc(N)c(C(=O)OC)c1COC(=O)CNS(=O)(=O)c1ccc(C)cc1	1.46
O=C(NCCN=C1NS(=O)(=O)c2ccccc21)c1ccc(S(=O)(=O)N2CCOCC2)cc1	-1.87

Data request: Query for Muscarinic acetylcholine receptor M5 (Homo sapiens) (UniProt P08912): what activation does the record show for `COc1cccc(-c2cnc3c(NC(C)=O)cc(-c4cc(F)ccc4OC)cn23)c1` ?
Data returned: -1.59

Data request: // same read-out, input: `Cc1cc2nc3c(=O)n(Cc4ccccc4)c(=O)[nH]c3nc2cc1N`
Data returned: 86.1

Data request: // same read-out, input: `CCC(=C/c1sc2ccc3ccccc3c2[n+]1C)/C=C1\Sc2ccc3ccccc3c2N1C`
Data returned: 1.63

Data request: // same read-out, input: `COc1cc(/C=C2/SC(=S)N(Cc3ccccc3)C2=O)cc(OC)c1O`
Data returned: 24.1

Data request: // same read-out, input: `C=CCNc1nnc(SCC(=O)N2CCCCC2)c2ccccc12`
Data returned: -0.35
